Origin of values: paper PMC6212790

assayTarget: GST-Rok-C97-191 (Bacillus subtilis subsp. subtilis str. …, UniProt O34857 97-191)
Sequence: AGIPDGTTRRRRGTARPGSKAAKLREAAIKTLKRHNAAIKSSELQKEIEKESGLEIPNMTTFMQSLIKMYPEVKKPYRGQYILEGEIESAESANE
assayDetails: protein binding microarray; high values mean tight binding
testParameters: protein: recombinant; tags: GST (pTH5325, pDEST15-Magic modified); dsDNA, one strand shown
Whole data set: some 33,000 sequences, median “e-score” near -0.038, cut for the highest 2% near 0.33. This is one part of a sample in which the highest values are shown more often than they occur.
metricName: binding signal
Express your answer as a number followed by its unit.

Worked set:
GCTCGAGC = -0.176 E-score
GAAAACTA = 0.336 E-score
CCACTATA = 0.219 E-score
TGGTAAAA = 0.337 E-score
CTACTTTC = 0.275 E-score
ATATTACA = 0.304 E-score
TAATTAGA = 0.324 E-score
CCGAGTCG = -0.148 E-score

Exercise: Given the entry GGACTTTA , report its measured binding signal.
Key: -0.19 E-score

Exercise: // binding signal lookup, key: ATTGATAC
Key: 0.22 E-score

Exercise: Fill in the blank: the reported binding signal of AAGTAAAT is ____.
Key: 0.359 E-score

Exercise: Please report the recorded binding signal for CAGTAAAA .
Key: 0.188 E-score

Exercise: Return reported binding signal; argument: AATGCCCT
Key: 0.0279 E-score

Exercise: Given the sequence CTATTACA , what is its reported binding signal?
Key: 0.35 E-score

Exercise: Which binding signal is listed for CTATTATC ?
Key: 0.211 E-score

Exercise: Requested field: binding signal. Item: ACCACAGA
Key: 0.0469 E-score

Exercise: What value of binding signal has been reported for the following sequence? ATATAAAC
Key: 0.33 E-score

Exercise: Which value of binding signal has been reported for CGATAGAA in the records?
Key: 0.359 E-score

Exercise: Would you mind telling me what binding signal value was observed for ACTGACCA ?
Key: -0.00734 E-score

Exercise: Using the record for AGTGCCGC , report its binding signal.
Key: -0.0284 E-score

Exercise: Which binding signal value belongs to CTATAAAC ?
Key: 0.291 E-score

Exercise: Need binding signal of GTTATGCA , thanks.
Key: 0.256 E-score

Exercise: Please report the recorded binding signal for ACATCGAA .
Key: 0.0242 E-score

Exercise: Bench note: what binding signal did ATGAAAGC show?
Key: -0.0998 E-score

Exercise: Any idea what binding signal was measured for ACTTTGGA ?
Key: -0.0486 E-score

Exercise: # query: binding signal of entry AATCTACT
Key: 0.43 E-score

Exercise: I'd like to know its binding signal. The sequence in question is ATAAAAAT
Key: 0.28 E-score

###

assayTarget: GST-Rok-C97-191 (Bacillus subtilis subsp. subtilis str. …, UniProt O34857 97-191)
Sequence: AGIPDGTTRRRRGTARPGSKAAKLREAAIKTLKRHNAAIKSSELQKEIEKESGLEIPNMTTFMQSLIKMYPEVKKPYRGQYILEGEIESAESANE
assayDetails: protein binding microarray; Rok is a gene silencer of Bacillus subtilis; high values mean tight binding
testParameters: protein: recombinant; tags: GST (pTH5325, pDEST15-Magic modified); dsDNA, one strand shown
In all, about 33,000 sequences were measured (“e-score”: median about -0.038, highest 2% from about 0.33 on). The full list was thinned out, with the highest values kept by preference.
The following sequences are listed with their measured binding signal values.

Past entries and their recorded results:
CCCTTGAC = -0.132 E-score
CTTGTGGC = -0.167 E-score
CGGTCGCA = -0.0742 E-score
CCCTTCGC = -0.198 E-score
TACTAGTA = 0.433 E-score

Exercise: # query: binding signal of entry ATCCGTCC
Key: -0.186 E-score

Exercise: May I ask what binding signal has been recorded for CGTTTACC ?
Key: -0.0458 E-score

Exercise: Given ATTATTTA , state its recorded binding signal.
Key: 0.37 E-score

Exercise: Can you look up the measured binding signal of CCTGTATA for me?
Key: 0.157 E-score

Exercise: Report binding signal for GACTAGTC please.
Key: 0.0585 E-score

Exercise: Tell me the measured binding signal of AGCTAGTC , please.
Key: 0.104 E-score
